experiment_summary: self-splicing fitness, log relative to wild type (ln ratio); higher = more splicing; Tetrahymena group I intron in knt gene, E. coli kanamycin selection, DiMSum; sequences stand for … in CUCUCU…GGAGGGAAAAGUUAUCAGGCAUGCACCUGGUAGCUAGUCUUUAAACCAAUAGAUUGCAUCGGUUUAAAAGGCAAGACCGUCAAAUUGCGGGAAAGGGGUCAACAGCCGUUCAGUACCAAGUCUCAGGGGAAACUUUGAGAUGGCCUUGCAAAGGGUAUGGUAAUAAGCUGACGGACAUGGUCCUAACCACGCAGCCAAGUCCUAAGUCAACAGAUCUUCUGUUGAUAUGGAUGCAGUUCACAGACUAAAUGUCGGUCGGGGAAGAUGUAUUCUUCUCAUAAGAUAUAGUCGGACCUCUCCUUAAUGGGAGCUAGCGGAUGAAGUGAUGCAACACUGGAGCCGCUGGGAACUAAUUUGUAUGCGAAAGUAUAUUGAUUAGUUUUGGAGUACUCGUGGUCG;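 note: selection with 25 µg/mL kanamycin versus none on LB agar overnight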
experimental_conditions: 30 °C
Lab note: anything with self-splicing fitness (ln) at or over -2 counts as condition met; the rest go in condition not met.

[[record]]
sequence_input = "UCUCAGCAAUAUUACGAACG"
category_label = "condition met"

[[record]]
sequence_input = "UCCAAGCAAUAUUACGUUGC"
category_label = "condition not met"

[[record]]
sequence_input = "GACUAGCAAUAUUACGACCA"
category_label = "condition met"

[[record]]
sequence_input = "CCUCAGCAAUAUUACGAUUC"
category_label = "condition not met"

[[record]]
sequence_input = "GGAAAGCAAUAUUACGUUUC"
category_label = "condition not met"

[[record]]
sequence_input = "UCACAGCAAUAUUACGGAUG"
category_label = "condition not met"

[[record]]
sequence_input = "UAUGAGCAAUAUUACGUCGC"
category_label = "condition not met"

[[record]]
sequence_input = "CUUCAGCAAUAUUACGGUGU"
category_label = "condition not met"

[[record]]
sequence_input = "UGCGAGCAAUAUUACGCGGC"
category_label = "condition not met"

[[record]]
sequence_input = "UGACAGCAAUAUUACGCAUC"
category_label = "condition not met"

[[record]]
sequence_input = "UGUGAGCAAUAUUACGCGCC"
category_label = "condition not met"

[[record]]
sequence_input = "CACAAGCAAUAUUACGUGGA"
category_label = "condition not met"

[[record]]
sequence_input = "GAUUAGCAAUAUUACGUAGC"
category_label = "condition met"

[[record]]
sequence_input = "AAGUAGCAAUAUUACGCCCU"
category_label = "condition met"

[[record]]
sequence_input = "UUCAAGCAAUAUUACGUUCA"
category_label = "condition met"

[[record]]
sequence_input = "AUCCAGCAAUAUUACGCUGA"
category_label = "condition met"

[[record]]
sequence_input = "AGGCAGCAAUAUUACGCCGU"
category_label = "condition met"

[[record]]
sequence_input = "UUUGAGCAAUAUUACGUGCU"
category_label = "condition not met"

[[record]]
sequence_input = "GUCGAGCAAUAUUACGUGAU"
category_label = "condition not met"

[[record]]
sequence_input = "CGCGAGCAAUAUUACGUUAG"
category_label = "condition not met"

[[record]]
sequence_input = "CAACAGCAAUAUUACGACUC"
category_label = "condition met"

[[record]]
sequence_input = "ACCUAGCAAUAUUACGAGCC"
category_label = "condition not met"

[[record]]
sequence_input = "CGCUAGCAAUAUUACGAGAG"
category_label = "condition not met"

[[record]]
sequence_input = "CAGGAGCAAUAUUACGAUCA"
category_label = "condition met"

[[record]]
sequence_input = "GCAUAGCAAUAUUACGGCCC"
category_label = "condition met"

[[record]]
sequence_input = "AAGAAGCAAUAUUACGACGA"
category_label = "condition met"

[[record]]
sequence_input = "GUCAAGCAAUAUUACGGUUC"
category_label = "condition met"

[[record]]
sequence_input = "UUUCAGCAAUAUUACGACGC"
category_label = "condition not met"

[[record]]
sequence_input = "UAGGAGCAAUAUUACGUACU"
category_label = "condition not met"

[[record]]
sequence_input = "UUCGAGCAAUAUUACGGUAC"
category_label = "condition not met"

[[record]]
sequence_input = "GCCCAGCAAUAUUACGGCUG"
category_label = "condition not met"

[[record]]
sequence_input = "GUAUAGCAAUAUUACGCAUG"
category_label = "condition not met"

[[record]]
sequence_input = "GUAUAGCAAUAUUACGGGGG"
category_label = "condition not met"

[[record]]
sequence_input = "AAUAAGCAAUAUUACGCUCG"
category_label = "condition met"

[[record]]
sequence_input = "CUUGAGCAAUAUUACGGCUG"
category_label = "condition met"

[[record]]
sequence_input = "AUCCAGCAAUAUUACGGAGA"
category_label = "condition not met"

[[record]]
sequence_input = "CAUCAGCAAUAUUACGCGUU"
category_label = "condition not met"

[[record]]
sequence_input = "CUUUAGCAAUAUUACGAUAC"
category_label = "condition not met"

[[record]]
sequence_input = "AGUCAGCAAUAUUACGACAU"
category_label = "condition met"

[[record]]
sequence_input = "UAGCAGCAAUAUUACGCCCU"
category_label = "condition met"

[[record]]
sequence_input = "CCGGAGCAAUAUUACGGAAG"
category_label = "condition not met"

[[record]]
sequence_input = "GAUAAGCAAUAUUACGCAGU"
category_label = "condition not met"

[[record]]
sequence_input = "GCGUAGCAAUAUUACGAGCG"
category_label = "condition met"

[[record]]
sequence_input = "GCACAGCAAUAUUACGUAUU"
category_label = "condition met"

[[record]]
sequence_input = "GUCAAGCAAUAUUACGCGUG"
category_label = "condition not met"

[[record]]
sequence_input = "UGAAAGCAAUAUUACGAUGU"
category_label = "condition not met"

[[record]]
sequence_input = "GUAAAGCAAUAUUACGUAAC"
category_label = "condition met"

[[record]]
sequence_input = "GAUCAGCAAUAUUACGGAGU"
category_label = "condition met"

[[record]]
sequence_input = "ACCAAGCAAUAUUACGGAGU"
category_label = "condition not met"

[[record]]
sequence_input = "ACCUAGCAAUAUUACGCUAU"
category_label = "condition met"

[[record]]
sequence_input = "AGUGAGCAAUAUUACGAGCG"
category_label = "condition met"

[[record]]
sequence_input = "CCGUAGCAAUAUUACGCAAU"
category_label = "condition not met"

[[record]]
sequence_input = "UGACAGCAAUAUUACGAAUU"
category_label = "condition not met"

[[record]]
sequence_input = "ACGCAGCAAUAUUACGUAAC"
category_label = "condition not met"

[[record]]
sequence_input = "GCGAAGCAAUAUUACGGGCG"
category_label = "condition met"

[[record]]
sequence_input = "AAGAAGCAAUAUUACGGGAU"
category_label = "condition not met"

[[record]]
sequence_input = "AGUUAGCAAUAUUACGCAUG"
category_label = "condition met"

[[record]]
sequence_input = "AGUAAGCAAUAUUACGCGUU"
category_label = "condition not met"

[[record]]
sequence_input = "AAUGAGCAAUAUUACGCUUG"
category_label = "condition not met"

[[record]]
sequence_input = "AUGAAGCAAUAUUACGCGCA"
category_label = "condition met"

[[record]]
sequence_input = "ACUAAGCAAUAUUACGCGAA"
category_label = "condition met"

[[record]]
sequence_input = "AUAUAGCAAUAUUACGACAG"
category_label = "condition not met"

[[record]]
sequence_input = "GAGUAGCAAUAUUACGAUUC"
category_label = "condition met"

[[record]]
sequence_input = "AGACAGCAAUAUUACGCAAA"
category_label = "condition not met"

[[record]]
sequence_input = "GGUAAGCAAUAUUACGACUU"
category_label = "condition met"

[[record]]
sequence_input = "GAGAAGCAAUAUUACGUCCG"
category_label = "condition met"

[[record]]
sequence_input = "ACGGAGCAAUAUUACGCCAA"
category_label = "condition not met"


---

experiment_summary: self-splicing fitness, log relative to wild type (ln ratio); higher = more splicing; Tetrahymena group I intron in knt gene, E. coli kanamycin selection, DiMSum; sequences stand for … in CUCUCU…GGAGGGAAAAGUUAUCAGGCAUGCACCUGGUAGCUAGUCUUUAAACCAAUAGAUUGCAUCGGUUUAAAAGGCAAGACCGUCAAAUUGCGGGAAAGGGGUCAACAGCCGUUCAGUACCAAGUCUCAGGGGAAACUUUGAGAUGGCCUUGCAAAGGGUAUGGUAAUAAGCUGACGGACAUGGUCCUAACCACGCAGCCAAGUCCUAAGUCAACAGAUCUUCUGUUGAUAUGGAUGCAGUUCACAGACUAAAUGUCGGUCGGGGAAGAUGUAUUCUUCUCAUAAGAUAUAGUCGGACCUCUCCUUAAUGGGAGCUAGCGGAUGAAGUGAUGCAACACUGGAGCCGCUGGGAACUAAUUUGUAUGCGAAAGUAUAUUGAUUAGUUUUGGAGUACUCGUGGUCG
experimental_conditions: 30 °C
Collected self-splicing fitness (ln) values appear next to each entry.
quantity_kind: self-splicing fitness (ln)

[[record]]
sequence_input = "CAUAAGCAAUAUUACGCGCC"
experimental_result = -3.87

[[record]]
sequence_input = "AGCAAGCAAUAUUACGACCA"
experimental_result = -0.697

[[record]]
sequence_input = "CAAGAGCAAUAUUACGCGAC"
experimental_result = -3.73

[[record]]
sequence_input = "GAUGAGCAAUAUUACGUGCU"
experimental_result = -2.91

[[record]]
sequence_input = "GAUAAGCAAUAUUACGAUGC"
experimental_result = -0.7

[[record]]
sequence_input = "CUGUAGCAAUAUUACGUGGG"
experimental_result = -3.78

[[record]]
sequence_input = "CCGAAGCAAUAUUACGGGGU"
experimental_result = -4.25

[[record]]
sequence_input = "UAAAAGCAAUAUUACGGGUC"
experimental_result = -3.09

[[record]]
sequence_input = "UCUCAGCAAUAUUACGGGAG"
experimental_result = -2.79

[[record]]
sequence_input = "GUAUAGCAAUAUUACGAACG"
experimental_result = -1.91

[[record]]
sequence_input = "AUUGAGCAAUAUUACGUUAU"
experimental_result = -2.61

[[record]]
sequence_input = "GGUCAGCAAUAUUACGCUUC"
experimental_result = -1.12

[[record]]
sequence_input = "AGGAAGCAAUAUUACGUAAU"
experimental_result = -0.858

[[record]]
sequence_input = "UAUCAGCAAUAUUACGUCCC"
experimental_result = -2.83

[[record]]
sequence_input = "AUAGAGCAAUAUUACGAGGA"
experimental_result = -2.21

[[record]]
sequence_input = "CCUGAGCAAUAUUACGGUCC"
experimental_result = -1.71

